System: Klebsiella pneumoniae
Assay: Antibacterial activity against Klebsiella pneumoniae after 24 hrs by agar well diffusion method
Type: functional
property_measured: MIC
I'd appreciate it if you wrote the number followed by its unit.

Exam item: Entry `Cn1cc(C=C2C(=O)OC(C)(C)OC2=O)c2ccccc21` has what MIC?
Marked response: 15 µg/mL

Exam item: Also `CCn1cc(C=C2C(=O)OC(C)(C)OC2=O)c2cc([N+](=O)[O-])ccc21` ?
Marked response: 15 µg/mL

Exam item: Also `CC1(C)OC(=O)C(=Cc2c[nH]c3ccc([N+](=O)[O-])cc23)C(=O)O1` ?
Marked response: 10 µg/mL

Exam item: Also `COc1ccc2[nH]cc(C=C3C(=O)OC(C)(C)OC3=O)c2c1` ?
Marked response: 10 µg/mL

Exam item: Also `CN[C@@H]1[C@H](O[C@H]2[C@H](O[C@H]3[C@H](O)[C@@H](O)[C@H](N=C(N)N)[C@@H](O)[C@@H]3N=C(N)N)O[C@@H](C)[C@]2(O)C=O)O[C@@H](CO)[C@H](O)[C@H]1O` ?
Marked response: 5 µg/mL

Exam item: Also `CCn1cc(C=C2C(=O)OC(C)(C)OC2=O)c2cc(OC)ccc21` ?
Marked response: 15 µg/mL

Exam item: Also `Cn1cc(C=C2C(=O)OC(C)(C)OC2=O)c2cc([N+](=O)[O-])ccc21` ?
Marked response: 15 µg/mL

Exam item: Also `CCn1cc(C=C2C(=O)OC(C)(C)OC2=O)c2cc(Br)ccc21` ?
Marked response: 15 µg/mL

Exam item: Also `COc1ccc2c(c1)c(C=C1C(=O)OC(C)(C)OC1=O)cn2C` ?
Marked response: 15 µg/mL
